- measurement-notes: Pharmacokinetics after oral administration; plasma and brain Leucine[5]-Enkephalin by radioimmunoassay
- Assay type: in vivo, ICR (CD-1) male out bred mice
- study-conditions: male, ICR (CD-1), mouse, 70 mg Kg^-1 Leucine[5]-Enkephalin, mice, plasma, read-out: time of peak plasma concentration of Leucine[5]-Enkephalin
endpoint: Tmax (h)

>>> reported("CC(C)C[C@H](NC(=O)[C@H](Cc1ccccc1)NC(=O)CNC(=O)CNC(=O)[C@@H](N)Cc1ccc(O)cc1)C(=O)O [L, Leucine^[5]-Enkephalin]")
1
